Test system: MCF7
assay: percentage of EdU-negative (G0-arrested) nuclei per well, 72 h; higher = more G0 arrest;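 further: secreted proteins added to cultured cells, EdU pulse at the end, nuclei found by Hoechst imaging, EdU status from nuclear versus surrounding ring intensity ratio, PBS as neutral control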
condition.notes: protein concentration 0.0225 µM; reference: sequence is the full UniProt precursor, the tested protein was the secreted form or ectodomain
Below is a list of entries, each paired with its recorded percentage of EdU-negative value.

chain	unit.spec	percentage of EdU-negative
MSPHPTALLGLVLCLAQTIHTQEEDLPRPSISAEPGTVIPLGSHVTFVCRGPVGVQTFRLERDSRSTYNDTEDVSQASPSESEARFRIDSVREGNAGLYRCIYYKPPKWSEQSDYLELLVKESSGGPDSPDTEPGSSAGPTQRPSDNSHNEHAPASQGLKAEHLYILIGVSVVFLFCLLLLVLFCLHRQNQIKQGPPRSKDEEQKPQQRPDLAVDVLERTADKATVNGLPEKDRETDTSALAAGSSQEVTYAQLDHWALTQRTARAVSPQSTKPMAESITYAAVARH [Q6GTX8]	%	23.2
MRKMNTLLLVSLSFLYLKEVMGLKCNTCIYTEGWKCMAGRGTCIAKENELCSTTAYFRGDKHMYSTHMCKYKCREEESSKRGLLRVTLCCDRNFCNVF [P0C8F1]	%	24.7
MVLCFPLLLLLLVLWGPVCPLHAWPKRLTKAHWFEIQHIQPSPLQCNRAMSGINNYTQHCKHQNTFLHDSFQNVAAVCDLLSIVCKNRRHNCHQSSKPVNMTDCRLTSGKYPQCRYSAAAQYKFFIVACDPPQKSDPPYKLVPVHLDSIL	%	25.2
MKGICSDAILVLATSMWMAFAIDFPLPMASERGQLDKTIVECLKNVNKCWFLSYIKPSEPICGSDQVTYSSDCHLCSKILFEGLNITKLYDGQCENS [P0C7L1]	%	23.2
MEALPLLAATTPDHGRHRRLLLLPLLLFLLPAGAVQGWETEERPRTREEECHFYAGGQVYPGEASRVSVADHSLHLSKAKISKPAPYWEGTAVIDGEFKELKLTDYRGKYLVFFFYPLDFTFVCPTEIIAFGDRLEEFRSINTEVVACSVDSQFTHLAWINTPRRQGGLGPIRIPLLSDLTHQISKDYGVYLEDSGHTLRGLFIIDDKGILRQITLNDLPVGRSVDETLRLVQAFQYTDKHGEVCPAGWKPGSETIIPDPAGKLKYFDKLN	%	26.1
MAVFKTTLWRLISGTLGIICLSLMSTLGILLKNSFTKLSIEPAFTPGPNIELQKDSDCCSCQEKWVGYRCNCYFISSEQKTWNESRHLCASQKSSLLQLQNTDELDFMSSSQQFYWIGLSYSEEHTAWLWENGSALSQYLFPSFETFNTKNCIAYNPNGNALDESCEDKNRYICKQQLI	%	26.6
MWQLLLPTALLLLVSAGMRTEDLPKAVVFLEPQWYSVLEKDSVTLKCQGAYSPEDNSTQWFHNENLISSQASSYFIDAATVNDSGEYRCQTNLSTLSDPVQLEVHIGWLLLQAPRWVFKEEDPIHLRCHSWKNTALHKVTYLQNGKDRKYFHHNSDFHIPKATLKDSGSYFCRGLVGSKNVSSETVNITITQGLAVSTISSFSPPGYQVSFCLVMVLLFAVDTGLYFSVKTNI	%	25.6

----------
Tested on: hTERT-HMEC
assay: percentage of EdU-negative (G0-arrested) nuclei per well, 72 h; higher = more G0 arrest
condition.notes: protein concentration 0.357143 µM; reference: sequence is the full UniProt precursor, the tested protein was the secreted form or ectodomain

chain	unit.spec	percentage of EdU-negative
MLCLLLTLGVALVCGVPAMDIPQTKQDLELPKLAGTWHSMAMATNNISLMATLKAPLRVHITSLLPTPEDNLEIVLHRWENNSCVEKKVLGEKTENPKKFKINYTVANEATLLDTDYDNFLFLCLQDTTTPIQSMMCQYLARVLVEDDEIMQGFIRAFRPLPRHLWYLLDLKQMEEPCRF	%	5.65
MKVSVAALSCLMLVAVLGSQAQFTNDAETELMMSKLPLENPVVLNSFHFAADCCTSYISQSIPCSLMKSYFETSSECSKPGVIFLTKKGRQVCAKPSGPGVQDCMKKLKPYSI	%	4.52
MLGIWTLLPLVLTSVARLSSKSVNAQVTDINSKGLELRKTVTTVETQNLEGLHHDGQFCHKPCPPGERKARDCTVNGDEPDCVPCQEGKEYTDKAHFSSKCRRCRLCDEGHGLEVEINCTRTQNTKCRCKPNFFCNSTVCEHCDPCTKCEHGIIKECTLTSNTKCKEEGSRSNLGWLCLLLLPIPLIVWVKRKEVQKTCRKHRKENQGSHESPTLNPETVAINLSDVDLSKYITTIAGVMTLSQVKGFVRKNGVNEAKIDEIKNDNVQDTAEQKVQLLRNWHQLHGKKEAYDTLIKDLKKANLCTLAEKIQTIILKDITSDSENSNFRNEIQSLV	%	5.88

----------
System: MCF7
assay: percentage of EdU-negative (G0-arrested) nuclei per well, 72 h; higher = more G0 arrest
condition.notes: protein concentration 0.225 µM; reference: sequence is the full UniProt precursor, the tested protein was the secreted form or ectodomain

chain	percentage of EdU-negative, %
MYTAIPQSGSPFPGSVQDPGLHVWRVEKLKPVPVAQENQGVFFSGDSYLVLHNGPEEVSHLHLWIGQQSSRDEQGACAVLAVHLNTLLGERPVQHREVQGNESDLFMSYFPRGLKYQEGGVESAFHKTSTGAPAAIKKLYQVKGKKNIRATERALNWDSFNTGDCFILDLGQNIFAWCGGKSNILERNKARDLALAIRDSERQGKAQVEIVTDGEEPAEMIQVLGPKPALKEGNPEEDLTADKANAQAAALYKVSDATGQMNLTKVADSSPFALELLISDDCFVLDNGLCGKIYIWKGRKANEKERQAALQVAEGFISRMQYAPNTQVEILPQGHESPIFKQFFKDWK	26

----------
Test system: hTERT-HMEC
assay: percentage of EdU-negative (G0-arrested) nuclei per well, 72 h; higher = more G0 arrest
condition.notes: protein concentration 0.0225 µM; reference: sequence is the full UniProt precursor, the tested protein was the secreted form or ectodomain
value.type: percentage of EdU-negative (%)

chain	value.type	reading
MLLLINVILTLWVSCANGQVKPCDFPDIKHGGLFHENMRRPYFPVAVGKYYSYYCDEHFETPSGSYWDYIHCTQNGWSPAVPCLRKCYFPYLENGYNQNYGRKFVQGNSTEVACHPGYGLPKAQTTVTCTEKGWSPTPRCIRVRTCSKSDIEIENGFISESSSIYILNKEIQYKCKPGYATADGNSSGSITCLQNGWSAQPICINSSEKCGPPPPISNGDTTSFLLKVYVPQSRVEYQCQPYYELQGSNYVTCSNGEWSEPPRCIHPCIITEENMNKNNIKLKGRSDRKYYAKTGDTIEFMCKLGYNANTSILSFQAVCREGIVEYPRCE	percentage of EdU-negative	5.2
MAVKKIAIFGATGQTGLTTLAQAVQAGYEVTVLVRDSSRLPSEGPRPAHVVVGDVLQAADVDKTVAGQDAVIVLLGTRNDLSPTTVMSEGARNIVAAMKAHGVDKVVACTSAFLLWDPTKVPPRLQAVTDDHIRMHKVLRESGLKYVAVMPPHIGDQPLTGAYTVTLDGRGPSRVISKHDLGHFMLRCLTTDEYDGHSTYPSHQYQ	percentage of EdU-negative	5.08
MGPPSASPHRECIPWQGLLLTASLLNFWNPPTTAKLTIESMPLSVAEGKEVLLLVHNLPQHLFGYSWYKGERVDGNSLIVGYVIGTQQATPGAAYSGRETIYTNASLLIQNVTQNDIGFYTLQVIKSDLVNEEATGQFHVYQENAPGLPVGAVAGIVTGVLVGVALVAALVCFLLLAKTGRTSIQRDLKEQQPQALAPGRGPSHSSAFSMSPLSTAQAPLPNPRTAASIYEELLKHDTNIYCRMDHKAEVAS	percentage of EdU-negative	5.43

----------
System: MCF7
assay: percentage of EdU-negative (G0-arrested) nuclei per well, 72 h; higher = more G0 arrest
condition.notes: protein concentration 0.0225 µM; reference: sequence is the full UniProt precursor, the tested protein was the secreted form or ectodomain

chain	percentage of EdU-negative [%]
MRTADREARPGLPSLLLLLLAGAGLSAASPPAAPRFNVSLDSVPELRWLPVLRHYDLDLVRAAMAQVIGDRVPKWVHVLIGKVVLELERFLPQPFTGEIRGMCDFMNLSLADCLLVNLAYESSVFCTSIVAQDSRGHIYHGRNLDYPFGNVLRKLTVDVQFLKNGQIAFTGTTFIGYVGLWTGQSPHKFTVSGDERDKGWWWENAIAALFRRHIPVSWLIRATLSESENFEAAVGKLAKTPLIADVYYIVGGTSPREGVVITRNRDGPADIWPLDPLNGAWFRVETNYDHWKPAPKEDDRRTSAIKALNATGQANLSLEALFQILSVVPVYNNFTIYTTVMSAGSPDKYMTRIRNPSRK	25.7
MRLLCGLWLWLSLLKVLQAQTPTPLPLPPPMQSFQGNQFQGEWFVLGLAGNSFRPEHRALLNAFTATFELSDDGRFEVWNAMTRGQHCDTWSYVLIPAAQPGQFTVDHGVEPGADREETRVVDSDYTQFALMLSRRHTSRLAVLRISLLGRSWLLPPGTLDQFICLGRAQGLSDDNIVFPDVTGWSPQASVC [Q6JVE5]	28.3
MDPRLPAWALVLLGPALVFALGPAPTPEMREKLCGHHFVRALVRVCGGPRWSTEARRPATGGDRELLQWLERRHLLHGLVADSNLTLGPGLQPLPQTSHHHRHHRAAATNPARYCCLSGCTQQDLLTLCPY	27
MARYMLLLLLAVWVLTGELWPGAEARAAPYGVRLCGREFIRAVIFTCGGSRWRRSDILAHEAMGDTFPDADADEDSLAGELDEAMGSSEWLALTKSPQAFYRGRPSWQGTPGVLRGSRDVLAGLSSSCCKWGCSKSEISSLC [Q8WXF3]	26.3
MRLPRRAALGLLPLLLLLPPAPEAAKKPTPCHRCRGLVDKFNQGMVDTAKKNFGGGNTAWEEKTLSKYESSEIRLLEILEGLCESSDFECNQMLEAQEEHLEAWWLQLKSEYPDLFEWFCVKTLKVCCSPGTYGPDCLACQGGSQRPCSGNGHCSGDGSRQGDGSCRCHMGYQGPLCTDCMDGYFSSLRNETHSICTACDESCKTCSGLTNRDCGECEVGWVLDEGACVDVDECAAEPPPCSAAQFCKNANGSYTCEECDSSCVGCTGEGPGNCKECISGYAREHGQCADVDECSLAEKTCVRKNENCYNTPGSYVCVCPDGFEETEDACVPPAEAEATEGESPTQLPSREDL [Q6UXH1]	23.9
MCSRGWDSCLALELLLLPLSLLVTSIQGHLVHMTVVSGSNVTLNISESLPENYKQLTWFYTFDQKIVEWDSRKSKYFESKFKGRVRLDPQSGALYISKVQKEDNSTYIMRVLKKTGNEQEWKIKLQVLDPVPKPVIKIEKIEDMDDNCYLKLSCVIPGESVNYTWYGDKRPFPKELQNSVLETTLMPHNYSRCYTCQVSNSVSSKNGTVCLSPPCTLARSFGVEWIASWLVVTVPTILGLLLT	25.8
